Tested on: OVCAR-8 ovarian
Assay: NCI tumour cell line growth inhibition, 48 h
Classification field: enter met for TGI values not below 50 µM, not met for values below it.

Ask: API: above_or_equal(metric=TGI, cutoff=50 µM) for item O=[N+]([O-])c1ccc2nc(Nc3ccccc3)c(Nc3ccccc3)nc2c1
Result: not met

Ask: API: above_or_equal(metric=TGI, cutoff=50 µM) for item CC(C)C(NC(=O)Oc1ccccc1)C(=O)NC1c2c(Br)sc(Br)c2C(=O)C1O (stereo not given)
Result: not met

Ask: API: above_or_equal(metric=TGI, cutoff=50 µM) for item COc1cc(-c2cccs2)sc1-c1cccs1
Result: met

Ask: API: above_or_equal(metric=TGI, cutoff=50 µM) for item CC1(C)[C@@H](NOCCCN)CC[C@]2(C)[C@H]3C(=O)C=C4[C@@H]5C[C@](C)(C(=O)O)CC[C@]5(C)CC[C@@]4(C)[C@]3(C)CC[C@@H]12
Result: not met

Ask: API: above_or_equal(metric=TGI, cutoff=50 µM) for item Cc1cc2c(cc1C)[n+](=O)c(C(=O)c1ccccc1)c(C(F)F)n2[O-]
Result: met

Ask: API: above_or_equal(metric=TGI, cutoff=50 µM) for item CC(=O)CC1CCC(=O)/C=C/C(=O)OC(CC(C)=O)CCC(=O)/C=C/C(=O)O1 (stereo not given)
Result: met

Ask: API: above_or_equal(metric=TGI, cutoff=50 µM) for item CC[C@@H](c1ccc(O)c(O)c1)[C@@H](CC)c1ccc(O)c(O)c1
Result: met

Ask: API: above_or_equal(metric=TGI, cutoff=50 µM) for item Cc1ccc(S[C@@H](C)[C@@](O)(CF)CN(Cc2ccccc2)C(=O)C(F)(F)F)cc1
Result: met

Ask: API: above_or_equal(metric=TGI, cutoff=50 µM) for item O=c1cc(-c2ccc3c(c2)OCO3)[nH]c2cc3c(cc12)OCO3
Result: met

Ask: API: above_or_equal(metric=TGI, cutoff=50 µM) for item O=c1[nH]c(=O)c2c3n(cc2[nH]1)CCCCC3
Result: met

Ask: API: above_or_equal(metric=TGI, cutoff=50 µM) for item N#CC(C(=O)CCC(=O)Nc1ccc(Cl)c(Cl)c1)c1ccccc1 (stereo not given)
Result: met

Ask: API: above_or_equal(metric=TGI, cutoff=50 µM) for item C/C(CN1C(=O)c2ccccc2C1=O)=N\NS(=O)(=O)c1ccc(Cl)cc1
Result: met

Ask: API: above_or_equal(metric=TGI, cutoff=50 µM) for item O=C1SC(SCc2ccccc2)=NC12CC2c1ccccc1 (stereo not given)
Result: not met

Ask: API: above_or_equal(metric=TGI, cutoff=50 µM) for item C=C1C(=O)O[C@@H]2/C=C(C)/C=C\[C@@H]3O[C@@]3(C)C[C@@H](O)C12 (stereo not given in full)
Result: met

Ask: API: above_or_equal(metric=TGI, cutoff=50 µM) for item COc1cccc(-c2cc(=O)c3cc(N4CCCCC4)ccc3[nH]2)c1
Result: met

Ask: API: above_or_equal(metric=TGI, cutoff=50 µM) for item COc1cc2c(/C=C3/C(=O)Nc4cccc(Cl)c43)c(Cl)[nH]c2cc1C
Result: not met

Ask: API: above_or_equal(metric=TGI, cutoff=50 µM) for item CCN(CC)CCCNC(=O)c1cc(-c2nccn2C)nc2ccccc12
Result: met

Ask: API: above_or_equal(metric=TGI, cutoff=50 µM) for item Cc1cn(C2OC(CO[Si](C)(C)C(C)(C)C)C(N(C)O[Si](C)(C)C(C)(C)C)C2[Se]c2ccccc2)c(=O)[nH]c1=O (stereo not given)
Result: not met
